Species on record: Rattus norvegicus
assay.overview: DrugMatrix - Regimen: Daily Repeat
Format: toxicity, organism-based, Sprague-Dawley
Design: regimen Daily Repeat, gender Male, age 6-8 weeks
run.parameters: in vivo, po, 1500 mg/kg, 72 h, tissue Plasma, route oral GAVAGE, dose level High, time 3 day, vehicle .5 % CMC
Form field: PHOSPHORUS (one value per entry).
Please respond with the number in mg/dL and leave the unit unwritten.

compound	PHOSPHORUS [mg/dL]
COC(=O)c1ccc(O)cc1	12.87

Give the measured PHOSPHORUS of NS(=O)(=O)c1cc2c(cc1Cl)NCNS2(=O)=O [HYDROCHLOROTHIAZIDE] .
11.27

Name the reported PHOSPHORUS value associated with the compound O=C1CCc2cc(OCCCCc3nnnn3C3CCCCC3)ccc2N1
11.9

Returns the measured PHOSPHORUS for the input compound. Input: CCOC(=O)[C@H](CCc1ccccc1)N[C@@H](C)C(=O)N1[C@H](C(=O)O)C[C@@H]2CCC[C@@H]21
12.53

----------
Species: Rattus norvegicus
assay.overview: DrugMatrix - Regimen: Daily Repeat
Format: toxicity, organism-based, Sprague-Dawley
Parameters: regimen Daily Repeat, gender Male, age 6-8 weeks
run.parameters: in vivo, po, 1500 mg/kg, 72 h, tissue Blood, route oral GAVAGE, dose level High, time 3 day, vehicle .5 % CMC
Listed next: entries and their corresponding MEAN CORPUSCULAR HEMOGLOBIN CONCENTRATION.
// note: answer is a bare numeric in G/DL

Check out these entries, answers already filled in.
compound	data.value
COC(=O)c1ccc(O)cc1 [METHYLPARABEN]	40.47
NS(=O)(=O)c1cc2c(cc1Cl)NCNS2(=O)=O [HYDROCHLOROTHIAZIDE]	39.2
O=C1CCc2cc(OCCCCc3nnnn3C3CCCCC3)ccc2N1 [CILOSTAZOL]	31.4

Can you share its MEAN CORPUSCULAR HEMOGLOBIN CONCENTRATION? I mean this compound: CCOC(=O)[C@H](CCc1ccccc1)N[C@@H](C)C(=O)N1[C@H](C(=O)O)C[C@@H]2CCC[C@@H]21
39.93

----------
Catalogue of LEUKOCYTE COUNT values
Species on record: Rattus norvegicus
assay.overview: DrugMatrix - Regimen: Daily Repeat
Assay type: toxicity, organism-based, Sprague-Dawley
Parameters: regimen Daily Repeat, gender Male, age 6-8 weeks
run.parameters: in vivo, po, 1500 mg/kg, 120 h, tissue Blood, route oral GAVAGE, dose level High, time 5 day, vehicle .5 % CMC
Entry rule: numbers only, all in x10E3/uL.

Below: 3 molecules and their reported LEUKOCYTE COUNT.
molecule	data.value
CCOC(=O)[C@H](CCc1ccccc1)N[C@@H](C)C(=O)N1[C@H](C(=O)O)C[C@@H]2CCC[C@@H]21	16.6
NS(=O)(=O)c1cc2c(cc1Cl)NCNS2(=O)=O [HYDROCHLOROTHIAZIDE]	14.6
COC(=O)c1ccc(O)cc1	17.8

# ---- query molecule ----
Give its LEUKOCYTE COUNT value. Item: O=C1CCc2cc(OCCCCc3nnnn3C3CCCCC3)ccc2N1
10.98

----------
Species on record: Rattus norvegicus
assay.overview: DrugMatrix - Regimen: Daily Repeat
Type: toxicity, organism-based, Sprague-Dawley
Set-up: regimen Daily Repeat, gender Male, age 6-8 weeks
run.parameters: in vivo, ip, 8 mg/kg, […], tissue Blood, route intraperitoneal, dose level High, time 14 day, vehicle 100 % SALINE
property.label: ABSOLUTE SEGMENTED NEUTROPHIL (cells/µL)
Answer format: numeric, cells/µL implied, no suffix.

Name the reported ABSOLUTE SEGMENTED NEUTROPHIL value associated with the substance GOLD SODIUM THIOMALATE
1460

----------
Species: Rattus norvegicus
assay.overview: DrugMatrix - Regimen: Daily Repeat
Format: toxicity, organism-based, Sprague-Dawley
Design: regimen Daily Repeat, gender Male, age 6-8 weeks
run.parameters: in vivo, po, 0 mg/kg, 120 h, tissue Blood, route oral GAVAGE, dose level Control, time 5 day, vehicle .5 % CMC
Catalogue of compounds with associated ERYTHROCYTE COUNT
Please respond with the number in x10E6/uL and leave the unit unwritten.

Example entries and their recorded answers appear below.
compound	property.label	data.value
Brc1ccccc1	ERYTHROCYTE COUNT	5.57
CCc1cccc2c3c([nH]c12)C(CC)(CC(=O)O)OCC3 (centres undefined)	ERYTHROCYTE COUNT	6.96

# ERYTHROCYTE COUNT lookup, item CC[C@H]1OC(=O)[C@H](C)[C@@H](O[C@H]2C[C@@](C)(OC)[C@@H](O)[C@H](C)O2)[C@H](C)[C@@H](O[C@@H]2O[C@H](C)C[C@H](N(C)C)[C@H]2O)[C@](C)(O)C[C@@H](C)/C(=N\OCOCCOC)[C@H](C)[C@@H](O)[C@]1(C)O
6.96

What ERYTHROCYTE COUNT value was documented for this compound, C[C@]12CCC(=O)C=C1CC[C@@H]1[C@@H]2C(=O)C[C@@]2(C)[C@H]1CC[C@]2(O)C(=O)CO ?
6.96

Suppose we examine the compound COc1c(C)c2c(c(O)c1C/C=C(\C)CCC(=O)OCCN1CCOCC1)C(=O)OC2 [MYCOPHENOLATE MOFETIL] ; what ERYTHROCYTE COUNT value has been reported?
5.32

For the compound CC(C)[C@H](N)C(=O)OCCOCn1cnc2c(=O)[nH]c(N)nc21 , what ERYTHROCYTE COUNT is on record?
5.52

Value lookup for ERYTHROCYTE COUNT; key = CCOC(=O)OC(C)OC1=C(C(=O)Nc2ccccn2)N(C)S(=O)(=O)c2ccccc21 (centres undefined)
5.57

// ERYTHROCYTE COUNT lookup, key: CC(/C=C1\SC(=S)N(CC(=O)O)C1=O)=C\c1ccccc1
5.32

Endpoint output: ERYTHROCYTE COUNT of Cc1c(-c2ccccc2)oc2c(C(=O)OCCN3CCCCC3)cccc2c1=O [FLAVOXATE] . Value?
5.66

----------
Organism: Rattus norvegicus
assay.overview: DrugMatrix - Regimen: Daily Repeat
Format: toxicity, organism-based, Sprague-Dawley
Design: regimen Daily Repeat, gender Male, age 6-8 weeks
run.parameters: in vivo, po, 0 mg/kg, 120 h, tissue Plasma, route oral GAVAGE, dose level Control, time 5 day, vehicle .5 % CMC
Recorded ASPARTATE AMINOTRANSFERASE, one value per entry.
Value expressed in u/L; do not type the unit.

Record request: ASPARTATE AMINOTRANSFERASE value, item Brc1ccccc1 [BROMOBENZENE]
67.67

// ASPARTATE AMINOTRANSFERASE lookup, key: CCc1cccc2c3c([nH]c12)C(CC)(CC(=O)O)OCC3 (configuration not stated) [ETODOLAC]
66.67

// lookup ASPARTATE AMINOTRANSFERASE for NCC(=O)O [GLYCINE]
65

Which ASPARTATE AMINOTRANSFERASE is reported for this compound? CCC[C@@H]1C[C@@H](C(=O)N[C@@H]([C@H]2O[C@H](SC)[C@H](O)[C@@H](O)[C@H]2O)[C@@H](C)O)N(C)C1 [LINCOMYCIN]
81.83

----------
Species: Rattus norvegicus
assay.overview: DrugMatrix - Regimen: Daily Repeat
Type: toxicity, organism-based, Sprague-Dawley
Design: regimen Daily Repeat, gender Male, age 6-8 weeks
run.parameters: in vivo, po, 0 mg/kg, 72 h, tissue Plasma, route oral GAVAGE, dose level Control, time 3 day, vehicle 100 % WATER
property.label: ALBUMIN (G/DL)
State just the number; it will be interpreted in G/DL.

Worked set:
compound.structure	ALBUMIN / G/DL
CC1(C)S[C@@H]2[C@H](NC(=O)[C@H](N)c3ccc(O)cc3)C(=O)N2[C@H]1C(=O)O	4.23
Fc1ccc([C@@H]2CCNC[C@H]2COc2ccc3c(c2)OCO3)cc1	4.07
COc1cc2c(N3CCN(C(=O)Nc4ccc(OC(C)C)cc4)CC3)ncnc2cc1OCCCN1CCCCC1	3.8
CN1CCC[C@H]1c1cccnc1	3.95
C[C@]12Cc3c[nH]nc3C[C@@H]1CC[C@@H]1[C@@H]2CC[C@@]2(C)[C@H]1CC[C@]2(C)O	4.07
NNC(=O)c1ccncc1	4.17
CC(C)(S)[C@@H](N)C(=O)O	4.07

Next, consider the following compound.
Item CNCCC=C1c2ccccc2CCc2ccccc21 has what recorded ALBUMIN?
3.78

----------
In this section we review reported LIPASE values for a set of compounds.
Species on record: Rattus norvegicus
assay.overview: DrugMatrix - Regimen: Daily Repeat
Format: toxicity, organism-based, Sprague-Dawley
Design: regimen Daily Repeat, gender Male, age 6-8 weeks
run.parameters: in vivo, po, 0 mg/kg, 120 h, tissue Plasma, route oral GAVAGE, dose level Control, time 5 day, vehicle .5 % CMC
Write down the numeric answer in u/L and omit the unit.

compound	u	data.value
O=c1[nH]cc(F)c(=O)[nH]1	u/L	8.17
CCC[C@@H]1C[C@@H](C(=O)N[C@@H]([C@H]2O[C@H](SC)[C@H](O)[C@@H](O)[C@H]2O)[C@@H](C)O)N(C)C1	u/L	10.33
CC(C)[C@H](N)C(=O)OCCOCn1cnc2c(=O)[nH]c(N)nc21	u/L	9
Cc1c(-c2ccccc2)oc2c(C(=O)OCCN3CCCCC3)cccc2c1=O [FLAVOXATE]	u/L	10.67
CC(/C=C1\SC(=S)N(CC(=O)O)C1=O)=C\c1ccccc1	u/L	9.5

Given the entry O=c1cc(-c2ccccc2)oc2c1ccc1ccccc12 , report its measured LIPASE.
17.2

Entry CC1(C)[C@H]2CC[C@]1(C)C(=O)C2 [(-)-CAMPHOR] has what LIPASE?
8.67

Requested read-out: LIPASE. Entry: CN1CCC[C@@H]1CCO[C@](C)(c1ccccc1)c1ccc(Cl)cc1
9.5

Param item = Brc1ccccc1 ; retrieve measured LIPASE.
8.67
